Data provenance is ChEMBL document CHEMBL1777705.

Target: Transient receptor potential cation channel subfamily V member 1 (Rattus norvegicus, UniProt O35433)
Sequence (O35433 whole entry): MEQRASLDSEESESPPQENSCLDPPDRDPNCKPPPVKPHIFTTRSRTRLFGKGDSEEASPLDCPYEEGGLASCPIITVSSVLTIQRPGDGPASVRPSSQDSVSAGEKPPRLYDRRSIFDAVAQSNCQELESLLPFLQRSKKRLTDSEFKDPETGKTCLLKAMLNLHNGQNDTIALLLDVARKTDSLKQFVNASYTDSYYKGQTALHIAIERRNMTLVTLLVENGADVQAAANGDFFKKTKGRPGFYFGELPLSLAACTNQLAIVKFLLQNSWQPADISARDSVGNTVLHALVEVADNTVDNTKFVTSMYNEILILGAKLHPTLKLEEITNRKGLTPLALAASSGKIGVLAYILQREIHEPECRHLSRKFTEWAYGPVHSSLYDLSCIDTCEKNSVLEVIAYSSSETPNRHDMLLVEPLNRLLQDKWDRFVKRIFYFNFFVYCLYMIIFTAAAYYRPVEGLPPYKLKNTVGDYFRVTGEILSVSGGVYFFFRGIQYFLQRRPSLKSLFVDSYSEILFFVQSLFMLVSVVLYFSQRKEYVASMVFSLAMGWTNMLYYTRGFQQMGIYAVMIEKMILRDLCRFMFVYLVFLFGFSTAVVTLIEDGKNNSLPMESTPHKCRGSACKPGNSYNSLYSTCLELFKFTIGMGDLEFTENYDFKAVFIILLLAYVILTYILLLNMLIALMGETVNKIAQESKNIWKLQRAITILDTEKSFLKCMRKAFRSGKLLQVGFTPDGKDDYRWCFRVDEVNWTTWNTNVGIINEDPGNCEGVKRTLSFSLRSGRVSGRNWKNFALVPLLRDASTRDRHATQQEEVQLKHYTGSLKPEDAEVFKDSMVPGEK
Test: Antagonist activity at rat TRPV1 expressed in CHO cells co-expressing aequorin and CRE-luciferase reporter gene assessed as inhibition of capsaicin-induced calcium flux
measured-endpoint: IC50 (nM)
Provide the reading as a plain figure in nM.

>  <mol-smiles>
COc1cccc(NC(=O)Nc2cccc3ccc(O)cc23)c1

>  <unit-of-measure>
nM

>  <IC50>
8.6

$$$$
>  <mol-smiles>
O=C(Nc1cccc(C(F)(F)F)c1)Nc1cccc2ccc(O)cc12

>  <unit-of-measure>
nM

>  <IC50>
4.5

$$$$
>  <mol-smiles>
O=C(Nc1cccc([N+](=O)[O-])c1)Nc1cccc2ccc(O)cc12

>  <unit-of-measure>
nM

>  <IC50>
14

$$$$
>  <mol-smiles>
CSc1cccc(NC(=O)Nc2cccc3ccc(O)cc23)c1

>  <unit-of-measure>
nM

>  <IC50>
7.1

$$$$
>  <mol-smiles>
O=C(Nc1cccc(C(=O)O)c1)Nc1cccc2ccc(O)cc12

>  <unit-of-measure>
nM

>  <IC50>
270

$$$$

Dear colleague, please send me the reported IC50 for O=C(Nc1ccc(Cl)c(C(F)(F)F)c1)Nc1c(Cl)ccc2ccc(O)cc12 when you can. 4.5

Complete the entry with IC50 for O=C(Nc1ccc(C(F)(F)F)cc1)Nc1cccc2ccc(O)cc12 4.9

Hello, please tell me recorded IC50 for this one: CC(=O)c1cccc(NC(=O)Nc2cccc3ccc(O)cc23)c1 39

Using the record for CCOC(=O)c1cccc(NC(=O)Nc2cccc3ccc(O)cc23)c1 , state its measured IC50. 1.6

Query IC50 for O=C(Nc1ccc(Cl)cc1Cl)Nc1cccc2ccc(O)cc12 16

Return the recorded IC50 value; entry: O=C(Nc1ccccc1C(F)(F)F)Nc1cccc2ccc(O)cc12 64

----------
Test system: Rattus norvegicus
Test: Dose normalized AUC in po dosed rat
Format: ADME, organism-based
Conditions: in vivo
# if value of AUC reaches 80 ng·h/mL, tag 1; if it stays below, tag 0

>  <mol-smiles>
O=C(Nc1ccc(Cl)c(C(F)(F)F)c1)Nc1c(Cl)c(Cl)cc2ccc(O)cc12

>  <assigned-category>
1

$$$$

Does AUC meet or surpass 80 ng·h/mL for O=C(Nc1ccc(Cl)c(C(F)(F)F)c1)Nc1c(Cl)c(Br)cc2ccc(O)cc12 ? 1

Decide: AUC of COc1ccc2cccc(NC(=O)Nc3ccc(Cl)c(C(F)(F)F)c3)c2c1 >= 80 ng·h/mL? 1

Decide: AUC of O=C(Nc1ccc(Cl)c(C(F)(F)F)c1)Nc1c(Cl)ccc2ccc(O)cc12 >= 80 ng·h/mL? 0

Would you say O=C(Nc1ccc(Cl)c(C(F)(F)F)c1)Nc1c(Br)c(Br)cc2ccc(O)cc12 shows AUC at minimum 80 ng·h/mL? 1

----------
Target: Transient receptor potential cation channel subfamily V member 1 (Homo sapiens, UniProt Q8NER1)
Sequence (Q8NER1 whole entry): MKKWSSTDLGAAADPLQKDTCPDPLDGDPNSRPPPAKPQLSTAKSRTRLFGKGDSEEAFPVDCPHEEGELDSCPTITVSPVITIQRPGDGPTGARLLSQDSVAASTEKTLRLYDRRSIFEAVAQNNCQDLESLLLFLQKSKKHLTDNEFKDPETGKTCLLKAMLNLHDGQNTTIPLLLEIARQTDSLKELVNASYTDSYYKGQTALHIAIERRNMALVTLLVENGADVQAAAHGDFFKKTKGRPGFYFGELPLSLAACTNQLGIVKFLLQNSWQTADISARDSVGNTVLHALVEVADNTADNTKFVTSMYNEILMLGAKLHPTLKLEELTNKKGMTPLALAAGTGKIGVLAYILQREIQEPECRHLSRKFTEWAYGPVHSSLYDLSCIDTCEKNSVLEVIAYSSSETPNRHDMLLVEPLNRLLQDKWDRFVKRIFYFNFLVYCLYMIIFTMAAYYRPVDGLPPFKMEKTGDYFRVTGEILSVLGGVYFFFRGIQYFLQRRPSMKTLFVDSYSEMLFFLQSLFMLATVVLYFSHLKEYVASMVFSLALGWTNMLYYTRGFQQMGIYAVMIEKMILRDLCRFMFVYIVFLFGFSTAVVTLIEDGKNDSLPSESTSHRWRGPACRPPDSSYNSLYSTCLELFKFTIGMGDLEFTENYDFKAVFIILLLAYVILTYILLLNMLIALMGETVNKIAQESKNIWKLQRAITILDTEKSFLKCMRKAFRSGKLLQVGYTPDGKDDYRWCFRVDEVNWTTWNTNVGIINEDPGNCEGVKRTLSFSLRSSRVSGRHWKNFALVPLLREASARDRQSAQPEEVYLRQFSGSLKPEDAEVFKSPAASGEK
Test: Antagonist activity at human TRPV1 expressed in CHO cells co-expressing aequorin and CRE-luciferase reporter gene assessed as inhibition of capsaicin-induced calcium flux
measured-endpoint: pIC50
For clarity, pIC50 is expressed as the negative log10 of concentration in mol/L.

>  <mol-smiles>
O=C(Nc1ccccc1C(F)(F)F)Nc1cccc2ccc(O)cc12

>  <pIC50>
7.06

$$$$

We next turn to a different compound, shown below.
Find the measured pIC50 of O=C(Nc1ccc(Cl)c(C(F)(F)F)c1)Nc1c(Cl)ccc2ccc(O)cc12 and report it. 8.47

----------
Biological target: UniProt:Q8NER1
Assay: Antagonist activity at human TRPV1 expressed in CHO cells co-expressing aequorin and CRE-luciferase reporter gene assessed as inhibition of capsaicin-induced calcium flux
measured-endpoint: IC50 (nM)
Hi! Could you send only the number? It should be in nM, unit omitted.

Guide cases for IC50, answers given:
>  <mol-smiles>
O=C(Cc1cccc2ccc(O)cc12)Nc1ccc(Cl)c(C(F)(F)F)c1

>  <IC50 [nM]>
34

$$$$
>  <mol-smiles>
COc1cccc(NC(=O)Nc2cccc3ccc(O)cc23)c1

>  <IC50 [nM]>
8

$$$$

Determine from records and report IC50 for CC(=O)c1cccc(NC(=O)Nc2cccc3ccc(O)cc23)c1 28

# return recorded IC50 for input O=C(Nc1ccc(Cl)cc1Cl)Nc1cccc2ccc(O)cc12 12

Output measured IC50 for this item: CSc1cccc(NC(=O)Nc2cccc3ccc(O)cc23)c1 3.9

Give the reported IC50 for this compound. O=C(Nc1cccc(C(F)(F)F)c1)Nc1cccc2ccc(O)cc12 3.5

Answer with reported IC50 of O=C(Nc1cccc(C(=O)O)c1)Nc1cccc2ccc(O)cc12 520

Answer with reported IC50 of CCOC(=O)c1cccc(NC(=O)Nc2cccc3ccc(O)cc23)c1 1.7

Report IC50 for O=C(Nc1cccc([N+](=O)[O-])c1)Nc1cccc2ccc(O)cc12 7.5

Answer with the recorded IC50 of O=C(Nc1ccc(C(F)(F)F)cc1)Nc1cccc2ccc(O)cc12 only. 5.4

----------
Experiment: Oral bioavailability in Sprague-Dawley rat
Type: ADME, organism-based
Conditions: in vivo
measured-endpoint: bioavailability (%)
Give the value, in units of %, as a plain number.

Please give the documented bioavailability of O=C(Nc1ccc(Cl)c(C(F)(F)F)c1)Nc1c(Cl)c(Cl)cc2ccc(O)cc12 3
